# Tested on: MOLM14;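 further: after 48 h exposure read by CellTiter-Glo luminescence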
# Method notes: cell viability relative to vehicle control; higher = less cytotoxic
# Assay context: 10 µM; SRSF2 genotype: SRSF2 P95H/wt
Readout name: cell viability (%)

{"columns": ["Molecule", "Tgt", "Readout name", "Reported result"],
 "data": [
  ["Cc1ncc([N+](=O)[O-])n1CC(O)CCl (stereo not given) [Ornidazole]", "MOLM14", "cell viability", 91.9],
  ["O[C@H]1[C@H]2c3cc4c(cc3CN3CCC(=C[C@@H]1O)[C@H]23)OCO4 [Lycorine]", "MOLM14", "cell viability", 18.2],
  ["COc1ccc2c(c1)c(CC(=O)OCC(=O)O)c(C)n2C(=O)c1ccc(Cl)cc1 [Acemetacin (Emflex)]", "MOLM14", "cell viability", 95.4],
  ["COCC[n+]1c2c(n(Cc3cnccn3)c1C)C(=O)c1ccccc1C2=O [YM155 (Sepantronium Bromide)]", "MOLM14", "cell viability", 0.33],
  ["CC=C(C)C(=O)O [S3803 Angelic acid.cdx]", "MOLM14", "cell viability", 104],
  ["CC(=O)[C@H]1CC[C@H]2[C@@H]3CC=C4C[C@@H](O)CC[C@]4(C)[C@H]3CC[C@]12C [Pregnenolone]", "MOLM14", "cell viability", 101],
  ["N#Cc1cc2cc(CN3CCC(Nc4ncnc5sc(CC(F)(F)F)cc45)CC3)ccc2[nH]1", "MOLM14", "cell viability", 22.6],
  ["c1cncc(-c2cn[nH]n2)c1", "MOLM14", "cell viability", 88.6],
  ["COc1ccccc1OCCNCC(O)COc1cccc2[nH]c3ccccc3c12 (stereo not given) [Carvedilol]", "MOLM14", "cell viability", 53.6],
  ["CC(C)=CCc1cc2c(cc1O)O[C@H](c1ccc(O)cc1)CC2=O [Bavachin]", "MOLM14", "cell viability", 111],
  ["CC(C)(C)[N+]([O-])=Cc1ccc(S(=O)(=O)O)cc1S(=O)(=O)O [NXY-059 (Disufenton sodium)]", "MOLM14", "cell viability", 104],
  ["CCCC(=O)Nc1cccc(NC(=O)c2ccccc2Br)c1", "MOLM14", "cell viability", 102],
  ["CN(C)C(=O)c1cc2cnc(Nc3ccc(N4CCNCC4)cn3)nc2n1C1CCCC1 [Ribociclib (LEE011)]", "MOLM14", "cell viability", 54.2],
  ["CC(C)CN(C[C@@H](O)[C@H](Cc1ccccc1)NC(=O)O[C@H]1CCOC1)S(=O)(=O)c1ccc(N)cc1 [Amprenavir (Agenerase)]", "MOLM14", "cell viability", 90.2],
  ["O=C(O)Cc1cccc(OCCCN(Cc2cccc(C(F)(F)F)c2Cl)CC(c2ccccc2)c2ccccc2)c1", "MOLM14", "cell viability", 88.6],
  ["Nc1ncn([C@@H]2O[C@H](CO)[C@@H](O)[C@H]2O)c(=O)n1 [Azacitidine (Vidaza)]", "MOLM14", "cell viability", 45.7],
  ["COc1ncc(-c2cc(-c3ncc(CN4C[C@@H](C)O[C@@H](C)C4)o3)c3cn[nH]c3c2)cc1NS(C)(=O)=O", "MOLM14", "cell viability", 23.5],
  ["CCCCOc1ccc(C(=O)Nc2ccc(F)cc2F)cc1", "MOLM14", "cell viability", 100],
  ["C[C@@H](O)[C@H]1C(=O)N2C(C(=O)O)=C(S[C@@H]3CN[C@H](CNS(N)(=O)=O)C3)[C@H](C)[C@H]12 [Doripenem Hydrate]", "MOLM14", "cell viability", 103],
  ["COc1cc(N2CCN(C)CC2)ccc1Nc1nccc(-c2cn(C)c3cnccc23)n1", "MOLM14", "cell viability", 3.24],
  ["CC(C)CCn1c(CN2CCN(C(=O)C3CC3)CC2)nc2c1c(=O)n(C)c(=O)n2C", "MOLM14", "cell viability", 105],
  ["CC12CCC(CC1)C(C)(C)O2 [Eucalyptol]", "MOLM14", "cell viability", 104],
  ["O=C(O)CCCN1CCC(O[C@@H](c2ccc(Cl)cc2)c2ccccn2)CC1 [Bepotastine Besilate]", "MOLM14", "cell viability", 90.9],
  ["CCNc1nc(Nc2cc(F)c(C(=O)N3CCOCC3)cc2OC)ncc1C(F)(F)F", "MOLM14", "cell viability", 90],
  ["OCCn1cc(-c2ccc3c(c2)CC/C3=N\\O)c(-c2ccncc2)n1", "MOLM14", "cell viability", 89.8],
  ["CCCC(CCC)C(=O)O [Valproic acid]", "MOLM14", "cell viability", 102],
  ["COc1cc(CO)cc(OC)c1O [4-Hydroxy-3,5-dimethoxybenzyl alcohol]", "MOLM14", "cell viability", 99.7],
  ["CNC(=O)Nc1ccc(-c2nc(N3CC4CCC(C3)O4)c3cnn(C4CCC5(CC4)OCCO5)c3n2)cc1", "MOLM14", "cell viability", 36],
  ["C=C(C)[C@@H]1CC[C@]2(C(=O)O)CC[C@]3(C)[C@H](CC[C@@H]4[C@@]5(C)CCC(=O)C(C)(C)[C@@H]5CC[C@]43C)[C@@H]12 [Betulonic acid]", "MOLM14", "cell viability", 43.6],
  ["CC(C)n1c(/C=C/C(O)CC(O)CC(=O)O)c(-c2ccc(F)cc2)c2ccccc21 (stereo not given) [Fluvastatin sodium (Lescol)]", "MOLM14", "cell viability", 77.7],
  ["COc1c(C)cnc(Cn2cnc3c(Cl)nc(N)nc32)c1C", "MOLM14", "cell viability", 2.67],
  ["CCCCNc1ncc2c(-c3ccc(CN4CCN(C)CC4)cc3)cn([C@H]3CC[C@H](O)CC3)c2n1", "MOLM14", "cell viability", 0.26],
  ["COc1ccc(COc2cc3oc(=O)c4cc(C(C)O)ccc4c3cc2OC)cc1 (stereo not given) [Palomid 529]", "MOLM14", "cell viability", 102],
  ["O=c1c(-c2ccc(O)cc2)coc2c([C@@H]3O[C@H](CO)[C@@H](O)[C@H](O)[C@H]3O)c(O)ccc12 [Puerarin (Kakonein)]", "MOLM14", "cell viability", 102],
  ["CN1CCc2cc(Nc3ncc(C4CC4)c(NCCCNC(=O)C4CCC4)n3)ccc2C1", "MOLM14", "cell viability", 0.63]
]}
